- System: MCF7 breast cancer cells
- test.description: MTT cytotoxicity assay, MCF7
- Format: cell-based, human
- condition.notes: MCF7, MTT, 48 h exposure; read-out: IC50 ± SD, MCF7
Please go through the items and note down their pIC50.
The meaning of pIC50 here: minus log10 of the concentration in molar units.

Ask: Report pIC50 for O=C(c1ccccn1)[N](CP(=O)(c1ccccc1)c1ccccc1)[Pd][Cl] [complex 3a, [κ^3-O,N,N-(L)Pd(II)Cl]] tested on MCF7 breast cancer cells.
Reply: 4.35

Ask: Report pIC50 for N.N.[Cl][Pt][Cl] [Cisplatin, reference compound] tested on MCF7 breast cancer cells.
Reply: 4.60

Ask: Report pIC50 for O=C(c1cccc2cccnc12)[N](CP(=O)(c1ccccc1)c1ccccc1)[Pd][Cl] [complex 7, [κ^3-O,N,N-(L)Pd(II)Cl]] tested on MCF7 breast cancer cells.
Reply: 4.24

Ask: Report pIC50 for O=C(c1ccccn1)[N]([Pd][Cl])C(c1ccccc1)P(=O)(c1ccccc1)c1ccccc1 (stereo not shown) [complex 3b, [κ^3-O,N,N-(L)Pd(II)Cl]] tested on MCF7 breast cancer cells.
Reply: 4.89
